Data credit: the supplement of paper PMC5908809

Overview of recorded percent inhibition of viability for various compounds
- System: normal NK cells expanded with K562-aAPC
- Assay text: percent inhibition of viability; higher = more inhibition
- Particulars: 72 h; IL-2 2.5 ng/mL; 10 nM
Give the value in % but do not write % after it.

Answered examples (3):
CC(C)(C)c1cc(NC(=O)Nc2ccc(-c3cn4c(n3)sc3cc(OCCN5CCOCC5)ccc34)cc2)no1 [Quizartinib] (max concentration tested 1000 nM); -5.11
c1ccc2c(CCNc3ccc(Nc4ccncc4)cc3)c[nH]c2c1 [Serdemetan] (max concentration tested 10000 nM); -0.88
O=C(Cc1ccc(-c2ccc(OCCN3CCOCC3)cc2)cn1)NCc1ccccc1 [KX2-391] (max concentration tested 10000 nM); -0.99

Request: # get_value(readout= percent inhibition of viability, system= normal NK cells expanded with K562-aAPC) for CC(=O)O[C@@]12CO[C@@H]1C[C@H](O)[C@@]1(C)C(=O)[C@H](O)C3=C(C)[C@@H](OC(=O)[C@H](O)[C@@H](NC(=O)OC(C)(C)C)c4ccccc4)C[C@@](O)([C@@H](OC(=O)c4ccccc4)[C@H]21)C3(C)C [Docetaxel] (max concentration tested 1000 nM)
Response: 44.7

* * *

- Tested on: KHYG-1 (IL-2 2.5 ng/mL)
- Assay text: drug sensitivity score (DSS) (DSS units); higher = more sensitive; extreme values may be limits of the assay
- Particulars: 72 h
Test readout: drug sensitivity score
Field format: numeric only.

Solved cases (2 shown):
CCCCC(=O)OCC(=O)[C@]1(O)Cc2c(O)c3c(c(O)c2[C@@H](O[C@H]2C[C@H](NC(=O)C(F)(F)F)[C@H](O)[C@H](C)O2)C1)C(=O)c1c(OC)cccc1C3=O [Valrubicin] (max concentration tested 5000 nM); 17.5
Clc1ccc(C(c2ccccc2Cl)C(Cl)Cl)cc1 (stereo not drawn) [Mitotane] (max concentration tested 10000 nM); 0

Next compound, drug sensitivity score to be filled in.
Request: Please state recorded drug sensitivity score (tested on KHYG-1 (IL-2 2.5 ng/mL)) of CC[C@H](NC(=O)[C@H](C)NC)C(=O)N1C[C@@H](O)C[C@H]1Cc1c(-c2[nH]c3cc(F)ccc3c2C[C@@H]2C[C@H](O)CN2C(=O)[C@H](CC)NC(=O)[C@H](C)NC)[nH]c2cc(F)ccc12 [Birinapant] (max concentration tested 1000 nM)
Response: 0.34

* * *

- Tested on: KHYG-1 (IL-2 2.5 ng/mL)
- Assay text: drug sensitivity score (DSS) (DSS units); higher = more sensitive; extreme values may be limits of the assay
- Particulars: 72 h
Test readout: drug sensitivity score
Please state the value as a number alone, without comment.

In the examples that follow, each entry is paired with its recorded drug sensitivity score.
CCOc1ccn(-c2ccc(F)cc2)c(=O)c1C(=O)Nc1ccc(Oc2ccnc(N)c2Cl)c(F)c1 (max concentration tested 2500 nM); 0
CNC(=O)c1cccc(-c2ccc3c(N4CCOC[C@@H]4C)nc(N4CCOC[C@@H]4C)nc3n2)c1 [AZD2014] (max concentration tested 10000 nM); 11.2
CC(C)(C)c1cc(NC(=O)Nc2ccc(-c3cn4c(n3)sc3cc(OCCN5CCOCC5)ccc34)cc2)no1 [Quizartinib] (max concentration tested 1000 nM); 4.98

Request: Item CNC(=O)c1ccc(N2C(=S)N(c3ccc(C#N)c(C(F)(F)F)c3)C(=O)C23CCC3)cc1F [RD162] (max concentration tested 10000 nM) has what recorded drug sensitivity score?
Response: 0.01

Request: State the recorded drug sensitivity score for this entry: C[C@]1(c2nc3c(C(N)=O)cccc3[nH]2)CCCN1 [Veliparib] (max concentration tested 10000 nM)
Response: 0.01

Request: What does the record list as drug sensitivity score for Cc1ccccc1C(C(=O)NC1CCCCC1)N(C(=O)Cn1ccnc1C)c1cccc(F)c1 (stereo not drawn) [AGI-5198] (max concentration tested 10000 nM) ?
Response: 0

Request: Which measured drug sensitivity score value corresponds to Nc1nccc(-c2c(-c3ccc(F)cc3)ncn2C2CCCCC2)n1 (max concentration tested 10000 nM) ?
Response: 1.98

Request: Recorded drug sensitivity score of CC(=O)Nc1cccc(-n2c(=O)n(C3CC3)c(=O)c3c(Nc4ccc(I)cc4F)n(C)c(=O)c(C)c32)c1 [Trametinib] (max concentration tested 250 nM) , please.
Response: 10.7

* * *

- Test system: normal primary NK cells, pool 1 (3 donors) (IL-2 2.5 ng/mL)
- Assay text: percent inhibition of viability; higher = more inhibition
- Particulars: 72 h; 1 nM
Test readout: percent inhibition of viability (%)
A number alone suffices; assume %.

# annotated cases, reported percent inhibition of viability shown
CCCCc1nc2cc(/C=C/C(=O)NO)ccc2n1CCN(CC)CC [Pracinostat] (max concentration tested 10000 nM); -0.69
CC[C@H](NC(=O)[C@H](C)NC)C(=O)N1C[C@@H](O)C[C@H]1Cc1c(-c2[nH]c3cc(F)ccc3c2C[C@@H]2C[C@H](O)CN2C(=O)[C@H](CC)NC(=O)[C@H](C)NC)[nH]c2cc(F)ccc12 [Birinapant] (max concentration tested 1000 nM); -11.8
CC[C@H](Nc1ncnc2[nH]cnc12)c1nc2cccc(F)c2c(=O)n1-c1ccccc1 [Idelalisib] (max concentration tested 10000 nM); -2.62
CCCS(=O)(=O)Nc1ccc(F)c(C(=O)c2c[nH]c3ncc(-c4ccc(Cl)cc4)cc23)c1F [Vemurafenib] (max concentration tested 10000 nM); -3.98

Turning now to a further compound:
Request: Bench note: what percent inhibition of viability did O=C(O)CCCCC(CCSCc1ccccc1)SCc1ccccc1 (stereo not given) [CPI-613] (max concentration tested 10000 nM) show?
Response: -0.75

* * *

- Test system: NK-YS (IL-2 2.5 ng/mL)
- Assay text: percent inhibition of viability; higher = more inhibition
- Particulars: 72 h; 10000 nM
Test readout: percent inhibition of viability (%)
// note: answer is a bare numeric in %

O=C(Cc1ccc(-c2ccc(OCCN3CCOCC3)cc2)cn1)NCc1ccccc1 [KX2-391] (max concentration tested 10000 nM); 81.6

Request: Recorded percent inhibition of viability of O=C(Nc1cccnc1)N1CCC(Cc2cccc(Oc3ccc(C(F)(F)F)cn3)c2)CC1 [PF-3845] (max concentration tested 10000 nM) , please.
Response: 75

Request: Requested field: percent inhibition of viability. Item: O=C(/C=C/c1cccc(S(=O)(=O)Nc2ccccc2)c1)NO [Belinostat] (max concentration tested 10000 nM)
Response: 109

* * *

- Tested on: normal NK cells expanded with K562-aAPC
- Assay text: percent inhibition of viability; higher = more inhibition
- Particulars: 72 h; IL-2 2.5 ng/mL; 10 nM
Listed below: percent inhibition of viability values for each entry.
Entry rule: numbers only, all in %.

O=C(c1ccc(OCCN2CCCCC2)cc1)c1c(-c2ccc(O)cc2)sc2cc(O)ccc12 [Raloxifene] (max concentration tested 10000 nM); -1.26

Request: For the compound shown here, C#Cc1cccc(Nc2ncnc3cc(OC)c(OCCCCCCC(=O)NO)cc23)c1 [CUDC-101] (max concentration tested 10000 nM) , give the reported percent inhibition of viability.
Response: 1.39

Request: Any idea what percent inhibition of viability was measured for NC(=O)N1CCC(CC(=O)N2CCC([C@H]3c4ncc(Br)cc4CCc4cc(Cl)cc(Br)c43)CC2)CC1 [Lonafarnib] (max concentration tested 10000 nM) ?
Response: -4.83

Request: Fill blank: measured percent inhibition of viability of the compound Nc1nc2[nH]cnc2c(=S)[nH]1 [Thioguanine] (max concentration tested 10000 nM) is ____.
Response: -5.02

Request: What percent inhibition of viability value was documented for this compound, CC1(C)CNc2cc(NC(=O)c3cccnc3NCc3ccncc3)ccc21 [Motesanib] (max concentration tested 10000 nM) ?
Response: -5.96

Request: Item under review: CC[C@H](NC(=O)[C@H](C)NC)C(=O)N1C[C@@H](O)C[C@H]1Cc1c(-c2[nH]c3cc(F)ccc3c2C[C@@H]2C[C@H](O)CN2C(=O)[C@H](CC)NC(=O)[C@H](C)NC)[nH]c2cc(F)ccc12 [Birinapant] (max concentration tested 1000 nM) . Reported percent inhibition of viability?
Response: 2.8

Request: Given the entry C=CCNC1=C2C[C@@H](C)C[C@H](OC)[C@H](O)[C@@H](C)/C=C(\C)[C@H](OC(N)=O)[C@@H](OC)/C=C\C=C(/C)C(=O)NC(=CC1=O)C2=O [Tanespimycin] (max concentration tested 10000 nM) , report its measured percent inhibition of viability.
Response: -2.4

* * *

- Tested on: KHYG-1 (IL-2 2.5 ng/mL)
- Assay text: drug sensitivity score (DSS) (DSS units); higher = more sensitive; extreme values may be limits of the assay
- Particulars: 72 h
# if value of drug sensitivity score reaches 3, tag yes; if it stays below, tag no

Illustrative cases are given below, each with its answer.
Cc1cc(C)c(CNC(=O)c2cc(-c3ccc(CN4CCOCC4)cc3)cc3c2cnn3C2CCCC2)c(=O)[nH]1 [EPZ-5687] (max concentration tested 10000 nM); no
CS(=O)(=O)c1ccc(C(=O)Nc2ccc(Cl)c(-c3ccccn3)c2)c(Cl)c1 [Vismodegib] (max concentration tested 10000 nM); no
Nc1ncn([C@@H]2O[C@H](CO)[C@@H](O)[C@H]2O)c(=O)n1 [Azacitidine] (max concentration tested 10000 nM); yes

Request: Confirm if drug sensitivity score reported for the molecule C=CC(=O)N1CCC[C@@H](n2nc(-c3ccc(Oc4ccccc4)cc3)c3c(N)ncnc32)C1 [Ibrutinib] (max concentration tested 1000 nM) is 3 or above.
Response: no

Request: Decide: is the reported value of drug sensitivity score for CC(C)c1cc(-c2n[nH]c(=O)n2-c2ccc3c(ccn3C)c2)c(O)cc1O [Ganetespib] (max concentration tested 1000 nM) equal to or greater than 3?
Response: yes

Request: Hi team, for CNC(=O)c1cc(COc2nnc(Nc3ccc(Cl)cc3)c3ccoc23)ccn1 [Telatinib] (max concentration tested 10000 nM) , is the recorded drug sensitivity score at or above 3?
Response: no
